TARGET_DESC: T1, β-catenin (UniProt P35222 134-665, limits assumed, biotinylated in the SPR and plate assays)
T1 construct: also called beta catenin; biotinylated β-catenin
T1 sequence (looked up): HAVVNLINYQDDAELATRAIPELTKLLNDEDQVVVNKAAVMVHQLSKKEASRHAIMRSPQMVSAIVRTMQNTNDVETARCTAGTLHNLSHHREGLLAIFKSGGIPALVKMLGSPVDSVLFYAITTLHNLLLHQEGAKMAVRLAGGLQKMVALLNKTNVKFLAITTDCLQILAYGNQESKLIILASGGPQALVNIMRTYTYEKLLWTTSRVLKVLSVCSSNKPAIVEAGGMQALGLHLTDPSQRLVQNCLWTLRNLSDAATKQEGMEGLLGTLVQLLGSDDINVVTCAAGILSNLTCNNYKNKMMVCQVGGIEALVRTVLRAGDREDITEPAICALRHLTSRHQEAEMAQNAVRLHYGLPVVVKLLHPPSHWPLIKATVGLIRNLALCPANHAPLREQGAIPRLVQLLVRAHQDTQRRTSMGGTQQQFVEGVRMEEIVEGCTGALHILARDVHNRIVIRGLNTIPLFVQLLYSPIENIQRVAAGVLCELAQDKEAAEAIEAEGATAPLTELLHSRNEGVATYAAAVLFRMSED
METHOD_SUMMARY: SPR (Biacore)
pKd: −log10 of the molar value.
ATTRIBUTE_MEASURED: pKd

>  <BINDER>
KMSRMWLLISFWG (HELM PEPTIDE1{K.M.S.R.M.W.L.L.I.S.F.W.G}$PEPTIDE1,PEPTIDE1,1:R3-13:R2$$$V2.0; SMILES CC[C@H](C)[C@@H]1NC(=O)[C@H](CC(C)C)NC(=O)[C@H](CC(C)C)NC(=O)[C@H](Cc2c[nH]c3ccccc23)NC(=O)[C@H](CCSC)NC(=O)[C@H](CCCNC(=N)N)NC(=O)[C@H](CO)NC(=O)[C@H](CCSC)NC(=O)[C@@H](N)CCCCNC(=O)CNC(=O)[C@H](Cc2c[nH]c3ccccc23)NC(=O)[C@H](Cc2ccccc2)NC(=O)[C@H](CO)NC1=O) [SEQ ID NO: 25]

>  <ATTRIBUTE_MEASURED>
pKd

>  <ASSAY_VALUE>
6.95

$$$$
>  <BINDER>
H-MIRMWFLISFWG-OH [SEQ ID NO: 15]

>  <ATTRIBUTE_MEASURED>
pKd

>  <ASSAY_VALUE>
6.89

$$$$
>  <BINDER>
KMWFLISFWG (HELM PEPTIDE1{K.M.W.F.L.I.S.F.W.G}$PEPTIDE1,PEPTIDE1,1:R3-10:R2$$$V2.0; SMILES CC[C@H](C)[C@@H]1NC(=O)[C@H](CC(C)C)NC(=O)[C@H](Cc2ccccc2)NC(=O)[C@H](Cc2c[nH]c3ccccc23)NC(=O)[C@H](CCSC)NC(=O)[C@@H](N)CCCCNC(=O)CNC(=O)[C@H](Cc2c[nH]c3ccccc23)NC(=O)[C@H](Cc2ccccc2)NC(=O)[C@H](CO)NC1=O) [SEQ ID NO: 26]

>  <ATTRIBUTE_MEASURED>
pKd

>  <ASSAY_VALUE>
6.96

$$$$
>  <BINDER>
KMSRMWFLISLWG (HELM PEPTIDE1{K.M.S.R.M.W.F.L.I.S.L.W.G}$PEPTIDE1,PEPTIDE1,1:R3-13:R2$$$V2.0; SMILES CC[C@H](C)[C@@H]1NC(=O)[C@H](CC(C)C)NC(=O)[C@H](Cc2ccccc2)NC(=O)[C@H](Cc2c[nH]c3ccccc23)NC(=O)[C@H](CCSC)NC(=O)[C@H](CCCNC(=N)N)NC(=O)[C@H](CO)NC(=O)[C@H](CCSC)NC(=O)[C@@H](N)CCCCNC(=O)CNC(=O)[C@H](Cc2c[nH]c3ccccc23)NC(=O)[C@H](CC(C)C)NC(=O)[C@H](CO)NC1=O) [SEQ ID NO: 28]

>  <ATTRIBUTE_MEASURED>
pKd

>  <ASSAY_VALUE>
6.10

$$$$

From: patent US20260098059A1
